B1: NLV3 TCR beta chain (CDR3β only) (parent)
chain: ASSPTGGSPSPLH
partner: MLVPMVATV

Variants of: B1
assayProtocol: T-Switch: Jurkat TCRβ−/− cells expressing a CDR3 saturation-mutagenesis library, stained with two peptide-HLA-A*02:01 tetramers (original and novel peptide) plus anti-CD3, FACS-sorted into four gates, gDNA sequenced
conditionSummary: with HLA-A*02:01 with peptide … (NLV 3-1, the original bait), tetramers 1 µg/mL, 30 min on ice, DP and SW gates expanded about 10 days between rounds ('two to three rounds of selection' in the Methods), gate SP: higher = more of the variant in the gate that binds the original peptide and not the novel one = retained original binding. Fold enrichment of the CDR3 variant in one FACS gate of a two-tetra, unresolved parent, parent is a CDR3 fragment, scale: fold enrichment, numbering: sequential-on-construct, sequence …

sequenceVariant	enrichment
[…] (CDR3 as printed); T5H derived by comparing it with the table's wild-type CDR3 ASSPTGGSPSPLH	1.12
[…] (CDR3 as printed); P9D derived by comparing it with the table's wild-type CDR3 ASSPTGGSPSPLH	0
[…] (CDR3 as printed); P4Q derived by comparing it with the table's wild-type CDR3 ASSPTGGSPSPLH	3.21
[…] (CDR3 as printed); S8Y derived by comparing it with the table's wild-type CDR3 ASSPTGGSPSPLH	8.08
[…] (CDR3 as printed); G6A derived by comparing it with the table's wild-type CDR3 ASSPTGGSPSPLH	8.12
[…] (CDR3 as printed); G6P derived by comparing it with the table's wild-type CDR3 ASSPTGGSPSPLH	0
[…] (CDR3 as printed); P11T derived by comparing it with the table's wild-type CDR3 ASSPTGGSPSPLH	0
[…] (CDR3 as printed); G6R derived by comparing it with the table's wild-type CDR3 ASSPTGGSPSPLH	0
[…] (CDR3 as printed); P11Q derived by comparing it with the table's wild-type CDR3 ASSPTGGSPSPLH	5.97
[…] (CDR3 as printed); H13N derived by comparing it with the table's wild-type CDR3 ASSPTGGSPSPLH	7.17
[…] (CDR3 as printed); G6T derived by comparing it with the table's wild-type CDR3 ASSPTGGSPSPLH	0.64
[…] (CDR3 as printed); P4S derived by comparing it with the table's wild-type CDR3 ASSPTGGSPSPLH	0.723
[…] (CDR3 as printed); L12I derived by comparing it with the table's wild-type CDR3 ASSPTGGSPSPLH	1.14
[…] (CDR3 as printed); H13M derived by comparing it with the table's wild-type CDR3 ASSPTGGSPSPLH	6.07
[…] (CDR3 as printed); H13A derived by comparing it with the table's wild-type CDR3 ASSPTGGSPSPLH	6.12
[…] (CDR3 as printed); P9C derived by comparing it with the table's wild-type CDR3 ASSPTGGSPSPLH	0
[…] (CDR3 as printed); P4Y derived by comparing it with the table's wild-type CDR3 ASSPTGGSPSPLH	1.03
[…] (CDR3 as printed); P11E derived by comparing it with the table's wild-type CDR3 ASSPTGGSPSPLH	4.19
[…] (CDR3 as printed); P4K derived by comparing it with the table's wild-type CDR3 ASSPTGGSPSPLH	0
[…] (CDR3 as printed); P4H derived by comparing it with the table's wild-type CDR3 ASSPTGGSPSPLH	0
[…] (CDR3 as printed); G7H derived by comparing it with the table's wild-type CDR3 ASSPTGGSPSPLH	0
[…] (CDR3 as printed); A1G derived by comparing it with the table's wild-type CDR3 ASSPTGGSPSPLH	5.7
[…] (CDR3 as printed); T5I derived by comparing it with the table's wild-type CDR3 ASSPTGGSPSPLH	11.6
[…] (CDR3 as printed); A1N derived by comparing it with the table's wild-type CDR3 ASSPTGGSPSPLH	0
[…] (CDR3 as printed); P9A derived by comparing it with the table's wild-type CDR3 ASSPTGGSPSPLH	4.97
[…] (CDR3 as printed); A1E derived by comparing it with the table's wild-type CDR3 ASSPTGGSPSPLH	0
[…] (CDR3 as printed); T5Y derived by comparing it with the table's wild-type CDR3 ASSPTGGSPSPLH	15.6
[…] (CDR3 as printed); G7N derived by comparing it with the table's wild-type CDR3 ASSPTGGSPSPLH	0
[…] (CDR3 as printed); P4G derived by comparing it with the table's wild-type CDR3 ASSPTGGSPSPLH	0
[…] (CDR3 as printed); H13R derived by comparing it with the table's wild-type CDR3 ASSPTGGSPSPLH	4.99
[…] (CDR3 as printed); S3F derived by comparing it with the table's wild-type CDR3 ASSPTGGSPSPLH	0
[…] (CDR3 as printed); S3C derived by comparing it with the table's wild-type CDR3 ASSPTGGSPSPLH	11.2
[…] (CDR3 as printed); P9M derived by comparing it with the table's wild-type CDR3 ASSPTGGSPSPLH	0
[…] (CDR3 as printed); S3T derived by comparing it with the table's wild-type CDR3 ASSPTGGSPSPLH	10.9
[…] (CDR3 as printed); S2A derived by comparing it with the table's wild-type CDR3 ASSPTGGSPSPLH	3.53
[…] (CDR3 as printed); S10I derived by comparing it with the table's wild-type CDR3 ASSPTGGSPSPLH	0
[…] (CDR3 as printed); A1S derived by comparing it with the table's wild-type CDR3 ASSPTGGSPSPLH	4.29
[…] (CDR3 as printed); G6E derived by comparing it with the table's wild-type CDR3 ASSPTGGSPSPLH	0
[…] (CDR3 as printed); P9G derived by comparing it with the table's wild-type CDR3 ASSPTGGSPSPLH	0
[…] (CDR3 as printed); S3W derived by comparing it with the table's wild-type CDR3 ASSPTGGSPSPLH	0
[…] (CDR3 as printed); L12A derived by comparing it with the table's wild-type CDR3 ASSPTGGSPSPLH	0
[…] (CDR3 as printed); H13K derived by comparing it with the table's wild-type CDR3 ASSPTGGSPSPLH	3.5
[…] (CDR3 as printed); S2N derived by comparing it with the table's wild-type CDR3 ASSPTGGSPSPLH	0
[…] (CDR3 as printed); P11K derived by comparing it with the table's wild-type CDR3 ASSPTGGSPSPLH	8.18
[…] (CDR3 as printed); G6S derived by comparing it with the table's wild-type CDR3 ASSPTGGSPSPLH	10.5
[…] (CDR3 as printed); P11S derived by comparing it with the table's wild-type CDR3 ASSPTGGSPSPLH	2.02
[…] (CDR3 as printed); H13Y derived by comparing it with the table's wild-type CDR3 ASSPTGGSPSPLH	6.69
[…] (CDR3 as printed); L12N derived by comparing it with the table's wild-type CDR3 ASSPTGGSPSPLH	0
[…] (CDR3 as printed); S2R derived by comparing it with the table's wild-type CDR3 ASSPTGGSPSPLH	0
[…] (CDR3 as printed); P9K derived by comparing it with the table's wild-type CDR3 ASSPTGGSPSPLH	0
[…] (CDR3 as printed); S8C derived by comparing it with the table's wild-type CDR3 ASSPTGGSPSPLH	0
[…] (CDR3 as printed); G6W derived by comparing it with the table's wild-type CDR3 ASSPTGGSPSPLH	0
